biological target: Alpha-synuclein (Homo sapiens) (UniProt P37840); experiment: Inhibition of recombinant alpha-Synuclein (unknown origin) aggregation assessed as reduction in fluorescence intensity by measuring residual activity at 100 uM measured every 20 mins for 40 to 70 hrs by Thioflavin T based fluorescence analysis relative to control; details: time 40-70 hrs
Would you kindly list Activity for each of these compounds?

# input Provide one value: measured Activity of COc1cccc2sc(NC(=O)c3ccc(Br)cc3)nc12
# output > 200%

# input Provide one value: measured Activity of COc1cccc2sc(NC(=O)Nc3cc(Cl)cc(Cl)c3)nc12
# output > 200%

# input Provide one value: measured Activity of COc1cccc2sc(NC(=O)Nc3ccc(C#N)cc3)nc12
# output > 200%

Just for reference, ChEMBL document CHEMBL5523695 is where these values come from.
